- Protocol Details: Metabolic stability in mouse hepatocytes
- Format: in vitro ADME
- Conditions Used: read-out: Mouse MS Stability t1/2
Test Readout: half-life

# Molecule Smiles, Test Readout, Value
data = [
    ("Cc1nc(N2C[C@@H](CC(=O)Nc3ccc4ncsc4c3)C[C@H]2C(=O)O)c2oc3ccccc3c2n1", "half-life", "1.67 to 3.33 h"),
    ("Cc1nc(N2C[C@@H](CC(=O)Nc3ccc(-c4cccc5[nH]ncc45)cc3)C[C@H]2C(=O)O)c2oc3ccccc3c2n1", "half-life", "> 5 h"),
    ("Cc1nc(N2C[C@@H](CC(=O)Nc3ccc4[nH]ccc4c3)C[C@H]2C(=O)O)c2oc3ccccc3c2n1", "half-life", "1.67 to 3.33 h"),
    ("C#Cc1ccc(NC(=O)C[C@H]2C[C@@H](C(=O)O)N(c3nc(C)nc4c3oc3ccccc34)C2)cc1", "half-life", "> 5 h"),
]

# input Record request: half-life value, item Cc1nc(N2C[C@@H](CC(=O)N(C)C3CCCC3)C[C@H]2C(=O)O)c2oc3ccccc3c2n1
# output > 5 h

# input Record request: half-life value, item Cc1nc(N2C[C@@H](CC(=O)Nc3ccc4ncccc4c3)C[C@H]2C(=O)O)c2oc3ccccc3c2n1
# output 3.33 to 5 h

# input Record request: half-life value, item Cc1nc(N2C[C@@H](CC(=O)Nc3ccc(-c4ccccc4)cc3)C[C@H]2C(=O)O)c2oc3ccccc3c2n1
# output > 5 h

# input Record request: half-life value, item COc1cc(NC(=O)C[C@H]2C[C@@H](C(=O)O)N(c3nc(C)nc4c3oc3ccccc34)C2)ccn1
# output > 5 h

* * *

- Subject Of Test: cGAS (Homo sapiens, UniProt Q8N884)
- Sequence (Q8N884 whole entry): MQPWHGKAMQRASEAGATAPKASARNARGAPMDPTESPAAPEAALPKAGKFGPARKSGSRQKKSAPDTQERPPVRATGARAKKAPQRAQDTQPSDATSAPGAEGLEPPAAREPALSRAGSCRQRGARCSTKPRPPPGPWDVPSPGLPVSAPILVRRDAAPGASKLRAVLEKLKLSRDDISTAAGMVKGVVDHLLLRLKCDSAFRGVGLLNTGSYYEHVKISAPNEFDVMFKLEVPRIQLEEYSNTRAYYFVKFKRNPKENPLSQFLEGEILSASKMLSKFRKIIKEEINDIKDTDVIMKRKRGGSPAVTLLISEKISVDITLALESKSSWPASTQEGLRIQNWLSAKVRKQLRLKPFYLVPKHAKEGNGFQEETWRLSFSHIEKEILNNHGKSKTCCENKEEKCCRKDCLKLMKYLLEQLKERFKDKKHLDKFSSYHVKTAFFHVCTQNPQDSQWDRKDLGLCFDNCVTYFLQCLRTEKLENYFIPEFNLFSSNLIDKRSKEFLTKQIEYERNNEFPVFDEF
- Protocol Details: Transcreener cGAS enzymatic assay (FP)
- Format: biochemical
- Conditions Used: high ATP and GTP (1 mM) to mimic physiological conditions; read-out: IC50 FP Physiological
Test Readout: IC50

# input Return IC50 measured with cGAS (Homo sapiens, UniProt Q8N884) given this molecule: Cc1nc(N2C[C@@H](CC(=O)Nc3ccc(Cc4ccccc4)cc3)C[C@H]2C(=O)O)c2oc3ccccc3c2n1 [Compound 54]
# output 500 to 1000 nM

# input Return IC50 measured with cGAS (Homo sapiens, UniProt Q8N884) given this molecule: Cc1nc(N2C[C@@H](CC(=O)Nc3ccc(OC(F)(F)F)cc3)C[C@H]2C(=O)O)c2oc3ccccc3c2n1 [Compound 12]
# output > 5000 nM

# input Return IC50 measured with cGAS (Homo sapiens, UniProt Q8N884) given this molecule: Cc1nc(N2C[C@@H](CC(=O)Nc3ccc(-c4ccccc4)cn3)C[C@H]2C(=O)O)c2oc3ccccc3c2n1 [Compound 67]
# output 500 to 1000 nM

# input Return IC50 measured with cGAS (Homo sapiens, UniProt Q8N884) given this molecule: Cc1nc(N2C[C@@H](CC(=O)Nc3ccc(-c4cccc(CO)c4)cc3)C[C@H]2C(=O)O)c2oc3ccccc3c2n1 [Compound 59]
# output 500 to 1000 nM

# input Return IC50 measured with cGAS (Homo sapiens, UniProt Q8N884) given this molecule: Cc1nc(N2C[C@@H](CC(=O)Nc3ccc(-c4ccc(O)nc4)cc3)C[C@H]2C(=O)O)c2oc3ccccc3c2n1 [Compound 47]
# output 1000 to 5000 nM

# input Return IC50 measured with cGAS (Homo sapiens, UniProt Q8N884) given this molecule: Cc1nc(N2C[C@@H](CC(=O)Nc3ccc(-c4ccccc4)nn3)C[C@H]2C(=O)O)c2oc3ccccc3c2n1 [Compound 64]
# output 1000 to 5000 nM

# input Return IC50 measured with cGAS (Homo sapiens, UniProt Q8N884) given this molecule: Cc1nc(N2C[C@@H](CC(=O)Nc3ccc(-c4cn[nH]c4)cc3)C[C@H]2C(=O)O)c2oc3ccccc3c2n1 [Compound 10]
# output 200 to 500 nM

# input Return IC50 measured with cGAS (Homo sapiens, UniProt Q8N884) given this molecule: Cc1nc(N2C[C@@H](CC(=O)Nc3ccccc3C)C[C@H]2C(=O)O)c2oc3ccccc3c2n1 [Compound 17]
# output > 5000 nM

# input Return IC50 measured with cGAS (Homo sapiens, UniProt Q8N884) given this molecule: Cc1nc(N2C[C@@H](CC(=O)Nc3ccc4[nH]ncc4c3)C[C@H]2C(=O)O)c2oc3ccccc3c2n1 [Compound 3]
# output > 5000 nM

# input Return IC50 measured with cGAS (Homo sapiens, UniProt Q8N884) given this molecule: Cc1nc(N2C[C@@H](CC(=O)Nc3ccc(-c4cccc(N)n4)cc3)C[C@H]2C(=O)O)c2oc3ccccc3c2n1 [Compound 42]
# output 500 to 1000 nM

# input Return IC50 measured with cGAS (Homo sapiens, UniProt Q8N884) given this molecule: Cc1nc(N2C[C@@H](CC(=O)Nc3ccc(-c4cccnc4)cc3)C[C@H]2C(=O)O)c2oc3ccccc3c2n1 [Compound 37]
# output < 200 nM

# input Return IC50 measured with cGAS (Homo sapiens, UniProt Q8N884) given this molecule: Cc1nc(N2C[C@@H](CC(=O)Nc3ccc4ncccc4c3)C[C@H]2C(=O)O)c2oc3ccccc3c2n1 [Compound 32]
# output 1000 to 5000 nM

# input Return IC50 measured with cGAS (Homo sapiens, UniProt Q8N884) given this molecule: Cc1nc(N2C[C@@H](CC(=O)Nc3ccc(N4CCNCC4)cc3)C[C@H]2C(=O)O)c2oc3ccccc3c2n1 [Compound 8]
# output > 5000 nM

# input Return IC50 measured with cGAS (Homo sapiens, UniProt Q8N884) given this molecule: Cc1nc(N2C[C@@H](CC(=O)Nc3ccc(Cl)cc3)C[C@H]2C(=O)O)c2oc3ccccc3c2n1 [Compound 21]
# output 1000 to 5000 nM

* * *

Form field: Papp A→B (one value per entry).
- System: MDR1 (P-glycoprotein)
- Protocol Details: MDCK-MDR1 permeability A→B
- Type: in vitro ADME, Canine
- Conditions Used: dog; MDCK cells expressing human MDR1, A→B; read-out: MDCK-MDR Permeability A→B

# input Return Papp A→B measured with MDR1 (P-glycoprotein) given this molecule: Cc1nc(N2C[C@@H](CC(=O)Nc3ccc4ncsc4c3)C[C@H]2C(=O)O)c2oc3ccccc3c2n1
# output 10 to 50 nm/s

# input Return Papp A→B measured with MDR1 (P-glycoprotein) given this molecule: C#Cc1ccc(NC(=O)C[C@H]2C[C@@H](C(=O)O)N(c3nc(C)nc4c3oc3ccccc34)C2)cc1
# output 10 to 50 nm/s

# input Return Papp A→B measured with MDR1 (P-glycoprotein) given this molecule: Cc1nc(N2C[C@@H](CC(=O)Nc3cccc(-c4ccccc4)c3)C[C@H]2C(=O)O)c2oc3ccccc3c2n1
# output 10 to 50 nm/s

# input Return Papp A→B measured with MDR1 (P-glycoprotein) given this molecule: Cc1nc(N2C[C@@H](CC(=O)Nc3ccc4ccncc4c3)C[C@H]2C(=O)O)c2oc3ccccc3c2n1
# output 10 to 50 nm/s

# input Return Papp A→B measured with MDR1 (P-glycoprotein) given this molecule: Cc1nc(N2C[C@@H](CC(=O)Nc3ccc(Cc4ccccc4)cc3)C[C@H]2C(=O)O)c2oc3ccccc3c2n1
# output 10 to 50 nm/s

# input Return Papp A→B measured with MDR1 (P-glycoprotein) given this molecule: Cc1nc(N2C[C@@H](CC(=O)Nc3ccc(-c4ccccc4)c(C(F)(F)F)c3)C[C@H]2C(=O)O)c2oc3ccccc3c2n1
# output 10 to 50 nm/s

# input Return Papp A→B measured with MDR1 (P-glycoprotein) given this molecule: Cc1nc(N2C[C@@H](CC(=O)Nc3ccc(OC(F)(F)F)cc3)C[C@H]2C(=O)O)c2oc3ccccc3c2n1
# output 50 to 100 nm/s

# input Return Papp A→B measured with MDR1 (P-glycoprotein) given this molecule: Cc1nc(N2C[C@@H](CC(=O)Nc3ccc(-c4ccccc4)cn3)C[C@H]2C(=O)O)c2oc3ccccc3c2n1
# output 50 to 100 nm/s

# input Return Papp A→B measured with MDR1 (P-glycoprotein) given this molecule: Cc1nc(N2C[C@@H](CC(=O)Nc3ccc4ccccc4c3)C[C@H]2C(=O)O)c2oc3ccccc3c2n1
# output 50 to 100 nm/s

* * *

- Subject Of Test: cGAS (Homo sapiens, UniProt Q8N884)
- Protocol Details: Transcreener cGAS enzymatic assay (FP)
- Type: biochemical
- Conditions Used: standard conditions: 100 μM ATP and GTP, 62.5 nM bp ISD, 60 minute reactions; read-out: IC50 FP Standard
Test Readout: IC50

Examples from the recorded data:
# Molecule Smiles, IC50
rows = [
    ("Cc1nc(N2C[C@@H](CC(=O)Nc3ccc(Cl)c(Cl)c3)C[C@H]2C(=O)O)c2oc3ccccc3c2n1", "200 to 1000 nM"),
    ("Cc1nc(N2C[C@@H](CC(=O)Nc3ccc(-c4ccnc(N)c4)cc3)C[C@H]2C(=O)O)c2oc3ccccc3c2n1", "100 to 200 nM"),
]

# input Record request: IC50 value, item Cc1nc(N2C[C@@H](CC(=O)Nc3ccc(-c4cccnn4)cc3)C[C@H]2C(=O)O)c2oc3ccccc3c2n1
# output < 50 nM

These entries and their values trace back to patent US20240174684A1.
